# experiment: Pharmacokinetics following IV and oral delivery
# Design: species or system female NCRnu.nu mice
# condition_parameters: female, NCRnu.nu, mouse, in vivo, 20 mg/kg
outcome_measure: half-life (h)
One number for each entry, in h.

Asked: Provide only the value of recorded half-life for "C=CC(=O)Nc1cccc(Nc2nc(Nc3ccc(N4CCN(C(C)=O)CC4)cc3OC)ncc2C(F)(F)F)c1"
Given back: 2.6
